target: T1, cynomolgus monkey BCMA (cynomolgus monkey, UniProt A0A2K5UD97 1-53); test: SPR, IgG on chip, cyBCMA analyte
T1 construct: Soluble analyte in SPR; construct not described; also called cyBCMA; Cyno BCMA
T1 sequence (A0A2K5UD97 entry or part of it): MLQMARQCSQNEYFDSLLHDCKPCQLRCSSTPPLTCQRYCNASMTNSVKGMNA
Recorded kon, one value per entry.
Could you give me the number in M⁻¹ s⁻¹? Just the number is fine.

Solved cases below.
COMBO_Rd4_6nM_C09 (antibody, V domains shown, IgG) VH: EVQLLESGGGLVQPGGSLRLSCAASGFTFSSYPMSWVRQAPGKGLEWVSAIFASGGSTYYADSVKGRFTISRDNSKNTLYLQMNSLRAEDTAVYYCARYWPMDSWGQGTLVTVSS VL: EIVLTQSPGTLSLSPGERATLSCRASQSVSAQYLAWYQQKPGQAPRLLMYDASIRATGIPDRFSGSGSGTDFTLTISRLEPEDFAVYYCQQYQAWPLTFGQGTKVEIK = 2.37e+06
C01_Rd4_0.6nM_C03 (antibody, V domains shown, IgG) VH: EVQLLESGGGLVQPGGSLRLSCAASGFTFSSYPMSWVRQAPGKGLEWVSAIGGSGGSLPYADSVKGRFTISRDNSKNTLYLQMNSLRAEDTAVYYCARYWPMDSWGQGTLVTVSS VL: EIVLTQSPGTLSLSPGERATLSCRASCDVSSTYLAWYQQKPGQAPRLLIYDASSRAPGIPDRFSGSGSGTDFTLTISRLEPEDFAVYYCQQYMRSPLTFGQGTKVEIK = 4.72e+06
C01_Rd4_0.6nM_C06 (antibody, V domains shown, IgG) VH: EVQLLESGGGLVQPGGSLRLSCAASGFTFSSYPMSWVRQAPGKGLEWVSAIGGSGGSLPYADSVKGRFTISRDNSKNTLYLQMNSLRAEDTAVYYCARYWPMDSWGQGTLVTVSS VL: EIVLTQSPGTLSLSPGERATLSCRASEAVPSTYLAWYQQKPGQAPRLLIYDASSRAPGIPDRFSGSGSGTDFTLTISRLEPEDFAVYYCQQYSAFPLTFGQGTKVEIK = 6.22e+06
A02_Rd4_6nM_C04 (antibody, V domains shown, IgG) VH: EVQLLESGGGLVQPGGSLRLSCAASGFTFSSYAMNWVRQAPGKGLEWVSAIMSSGGPLYYADSVKGRFTISRDNSKNTLYLQMNSLRAEDTAVYYCARYWPMALWGQGTLVTVSS VL: EIVLTQSPGTLSLSPGERATLSCRASQSVSALYLAWYQQKPGQAPRLLMYDASIRATGIPDRFSGSGSGTDFTLTISRLEPEDFAVYYCQQYQVWPLTFGQGTKVEIK = 2.18e+06

Asked: Identify the reported kon for the following entry. A02_Rd4_6nM_C16 (antibody, V domains shown, IgG; also called P5AC16; P5A16) VH: EVQLLESGGGLVQPGGSLRLSCAASGFTFSSYAMNWVRQAPGKGLEWVSAISDFGGSTYYADSVKGRFTISRDNSKNTLYLQMNSLRAEDTAVYYCARYWPMDIWGQGTLVTVSS VL: EIVLTQSPGTLSLSPGERATLSCRASQSVSDLYLAWYQQKPGQAPRLLMYDASIRATGIPDRFSGSGSGTDFTLTISRLEPEDFAVYYCQQYQTWPLTFGQGTKVEIK
Given back: 1.34e+06

Reference source for all entries: patent US20190241669A1
